System: DENV-2 16681 strain
Test: DENV-2 antiviral assay (eGFP-labeled virus in Vero cells)
Type: cell-based, Dengue virus
Settings: Dengue virus, DENV2, Vero, 72 h, DENV-2 16681 eGFP, MOI 0.5, 3 days
Measure name: pEC50
Reminder that pEC50 means the negative base-10 logarithm of the concentration expressed in mol/L.

I have this molecule here, COc1cc(NC(C(=O)c2c[nH]c3cc(C)c(F)cc23)c2ccc(F)cc2OC)cc(S(C)(=O)=O)c1 (racemic) , and I need its recorded pEC50.
8.80

Also need COc1cc(NC(C(=O)c2c[nH]c3cc(F)ccc23)c2ccc(F)cc2OC)cc(S(C)(=O)=O)c1 (racemic) , thanks.
8.70

Also need COc1cc(NC(C(=O)c2c[nH]c3c(F)c(F)ccc23)c2ccc(F)cc2OC)cc(S(C)(=O)=O)c1 (racemic) , thanks.
8.85

Also need COc1cc(NC(C(=O)c2c[nH]c3c(C)c(Cl)ccc23)c2ccc(F)cc2OC)cc(S(C)(=O)=O)c1 (racemic) , thanks.
9.24

----------
Tested on: Vero cells
Assay: in vitro
Type: cell-based
Conditions: African green monkey
Measure name: CC50 (µM)
# output: bare number, implied unit µM

I have this compound here, COc1cc(NC(C(=O)c2c[nH]c3ccc(C(F)(F)F)cc23)c2ccc(F)cc2OC)cc(S(C)(=O)=O)c1 (single isomer, unassigned) [Enantiomer 17A] , and I need its recorded CC50.
14

Also need COc1cc(NC(C(=O)c2c[nH]c3cc(C)c(F)cc23)c2ccc(F)cc2OC)cc(S(C)(=O)=O)c1 (single isomer, unassigned) [Enantiomer 9A] , thanks.
4.8

Also need COc1cc(NC(C(=O)c2c[nH]c3c(C)c(Cl)ccc23)c2ccc(F)cc2OC)cc(S(C)(=O)=O)c1 (single isomer, unassigned) [Enantiomer 3A] , thanks.
4.8

----------
Test system: DENV-2 16681 strain
Assay: DENV-2 antiviral assay (eGFP-labeled virus in Vero cells)
Format: cell-based, Dengue virus
Conditions: DENV-2 16681 eGFP, MOI 0.5, 3 days, listed as 7A*
Measure name: pEC50
Reminder that pEC50 means the negative base-10 logarithm of the concentration expressed in mol/L.

I have this compound here, COc1cc(NC(C(=O)c2c[nH]c3cc(F)c(F)cc23)c2ccc(F)cc2OC)cc(S(C)(=O)=O)c1 (single isomer, unassigned) [Enantiomer 7A] , and I need its recorded pEC50.
9.12

----------
For each record, write down the corresponding CC50.
Test system: Vero cells
Assay: in vitro
Type: cell-based
Conditions: African green monkey
# output: bare number, implied unit µM

Record COc1cc(NC(C(=O)c2c[nH]c3ccc(OC(F)(F)F)cc23)c2ccc(F)cc2OC)cc(S(C)(=O)=O)c1 (single isomer, unassigned) [Enantiomer 18B] : what is its CC50 with Vero cells?
10

Also need COc1cc(NC(C(=O)c2c[nH]c3cc(OC)c(F)cc23)c2ccc(F)cc2OC)cc(S(C)(=O)=O)c1 (single isomer, unassigned) [Enantiomer 11A] , thanks.
6.6

Also need COc1cc(NC(C(=O)c2c[nH]c3c(C)c(F)ccc23)c2ccc(F)cc2OC)cc(S(C)(=O)=O)c1 (single isomer, unassigned) [Enantiomer 2B] , thanks.
8

Also need COc1cc(NC(C(=O)c2c[nH]c3cc(OC)c(C)cc23)c2ccc(F)cc2OC)cc(S(C)(=O)=O)c1 (single isomer, unassigned) [Enantiomer 10B] , thanks.
4.5

Also need COc1cc(NC(C(=O)c2c[nH]c3cc(F)c(F)cc23)c2ccc(F)cc2OC)cc(S(C)(=O)=O)c1 (single isomer, unassigned) [Enantiomer 7A] , thanks.
4.4

Also need COc1cc(NC(C(=O)c2c[nH]c3cc(F)c(F)cc23)c2ccc(F)cc2OC)cc(S(C)(=O)=O)c1 (single isomer, unassigned) [Enantiomer 7B] , thanks.
9.6

----------
Tested on: DENV-2 16681 strain
Experiment: DENV-2 antiviral assay (eGFP-labeled virus in Vero cells)
Type: cell-based, Dengue virus
Conditions: DENV-2 16681 eGFP, MOI 0.5, 3 days, listed as 18A*
Measure name: EC50 (nM)
# output: bare number, implied unit nM

Record COc1cc(NC(C(=O)c2c[nH]c3ccc(OC(F)(F)F)cc23)c2ccc(F)cc2OC)cc(S(C)(=O)=O)c1 (single isomer, unassigned) [Enantiomer 18A] : what is its EC50 with DENV-2 16681 strain?
0.086

----------
System: DENV-2 16681 strain
Assay: DENV-2 antiviral assay (eGFP-labeled virus in Vero cells)
Assay type: cell-based, Dengue virus
Details: DENV-2 16681 eGFP, MOI 0.5, 3 days, listed as 9B
Measure name: EC50 (nM)
# output: bare number, implied unit nM

I have this compound here, COc1cc(NC(C(=O)c2c[nH]c3cc(C)c(F)cc23)c2ccc(F)cc2OC)cc(S(C)(=O)=O)c1 (single isomer, unassigned) [Enantiomer 9B] , and I need its recorded EC50.
98

----------
For each record, write down the corresponding CC50 at 3 days.
Assay: in vitro
Type: cell-based
Settings: African green monkey, CC50
# output: bare number, implied unit µM

I have this molecule here, COc1cc(NC(C(=O)c2c[nH]c3c(C)c(Cl)ccc23)c2ccc(F)cc2OC)cc(S(C)(=O)=O)c1 (single isomer, unassigned) [Enantiomer 3A] , and I need its recorded CC50 at 3 days.
3.91

Also need COc1cc(NC(C(=O)c2c[nH]c3cc(OC)c(F)cc23)c2ccc(F)cc2OC)cc(S(C)(=O)=O)c1 (single isomer, unassigned) [Enantiomer 11A] , thanks.
4.38

Also need COc1cc(NC(C(=O)c2c[nH]c3c(C)c(F)ccc23)c2ccc(F)cc2OC)cc(S(C)(=O)=O)c1 (single isomer, unassigned) [Enantiomer 2A] , thanks.
2.92

Also need COc1cc(NC(C(=O)c2c[nH]c3cc(F)c(C)cc23)c2ccc(F)cc2OC)cc(S(C)(=O)=O)c1 (single isomer, unassigned) [Enantiomer 14A] , thanks.
2.42

Also need COc1cc(NC(C(=O)c2c[nH]c3ccc(C(F)(F)F)cc23)c2ccc(F)cc2OC)cc(S(C)(=O)=O)c1 (single isomer, unassigned) [Enantiomer 17B] , thanks.
1.61

Also need COc1cc(NC(C(=O)c2c[nH]c3cc(OC)c(Cl)cc23)c2ccc(F)cc2OC)cc(S(C)(=O)=O)c1 (single isomer, unassigned) [Enantiomer 16A] , thanks.
3.17

----------
System: DENV-2 16681 strain
Test: DENV-2 antiviral assay (eGFP-labeled virus in Vero cells)
Format: cell-based, Dengue virus
Details: Dengue virus, DENV2, Vero, 72 h, DENV-2 16681 eGFP, MOI 0.5, 3 days
Protocol: The antiviral activity of all the compounds of the invention was tested against DENV-2 16681 strain which was labeled with enhanced green fluorescent protein (eGPF; Table 1). […] At the day of the read out, the eGFP fluorescence was measured using an automated fluorescence microscope at 488 nm (blue laser). Using an in-house LIMS system, inhibition dose response curves for each compound were calculated and the half maximal effective concentration (EC50) was determined. […]
For each record, write down the corresponding EC50.
# output: bare number, implied unit nM

I have this compound here, COc1cc(NC(C(=O)c2c[nH]c3ccc(OC(F)(F)F)cc23)c2ccc(F)cc2OC)cc(S(C)(=O)=O)c1 (racemic) , and I need its recorded EC50.
0.25

Also need COc1cc(NC(C(=O)c2c[nH]c3c(C)c(F)ccc23)c2ccc(F)cc2OC)cc(S(C)(=O)=O)c1 (racemic) , thanks.
1.3

Also need COc1cc(NC(C(=O)c2c[nH]c3ccc(C)cc23)c2ccc(F)cc2OC)cc(S(C)(=O)=O)c1 (racemic) , thanks.
1.5

Also need COc1cc(NC(C(=O)c2c[nH]c3cc(OC)c(Cl)cc23)c2ccc(F)cc2OC)cc(S(C)(=O)=O)c1 (racemic) , thanks.
0.66

Also need COc1cc(NC(C(=O)c2c[nH]c3cc(F)c(C)cc23)c2ccc(F)cc2OC)cc(S(C)(=O)=O)c1 (racemic) , thanks.
1.5

Also need COc1cc(NC(C(=O)c2c[nH]c3ccc(C(F)(F)F)cc23)c2ccc(F)cc2OC)cc(S(C)(=O)=O)c1 (racemic) , thanks.
0.24

Also need COc1cc(NC(C(=O)c2c[nH]c3cc(F)c(F)cc23)c2ccc(F)cc2OC)cc(S(C)(=O)=O)c1 (racemic) , thanks.
1.5

Also need COc1cc(NC(C(=O)c2c[nH]c3cc(Cl)ccc23)c2ccc(F)cc2OC)cc(S(C)(=O)=O)c1 (racemic) , thanks.
1.1

Also need COc1cc(NC(C(=O)c2c[nH]c3cc(OC)c(C)cc23)c2ccc(F)cc2OC)cc(S(C)(=O)=O)c1 (racemic) , thanks.
1.1

Also need COc1cc(NC(C(=O)c2c[nH]c3cc(OC)c(F)cc23)c2ccc(F)cc2OC)cc(S(C)(=O)=O)c1 (racemic) , thanks.
3

Also need COc1cc(NC(C(=O)c2c[nH]c3c(C)cc(F)cc23)c2ccc(F)cc2OC)cc(S(C)(=O)=O)c1 (racemic) , thanks.
2.8

Also need COc1cc(NC(C(=O)c2c[nH]c3cc(OC)ccc23)c2ccc(F)cc2OC)cc(S(C)(=O)=O)c1 (racemic) , thanks.
2

Also need COc1cc(NC(C(=O)c2c[nH]c3c(Cl)c(OC)ccc23)c2ccc(F)cc2OC)cc(S(C)(=O)=O)c1 (racemic) , thanks.
0.6
